Just for reference, patent US11312769B2 is where these values come from.

- Tested on: hTMEFF1-ECD recombinant deletion mutants
- assay.overview: Binding domain determination with hTMEFF1-ECD deletion mutants (Octet)
- Design: species or system human
- condition.details: full length TMEFF1 ECD vs ΔFS1, ΔFS2, ΔFS1&FS2
measurement.name: Binding region (epitope domain binding)

molecule | value
31B7: human anti-TMEFF1 IgG1 antibody; VH SEQ ID NO: 17, VL SEQ ID NO: 21 (antibody, V domains shown) VH: QVQLVESGGGVVQPGRSLRLSCAASGFTFSSYGMHWVRQAPGKGLEWVAVIWYNGINKYYADSVKGRFTISRDASKNTLYLQMNSLRAEDTAVYYCAREGLLWFGGMDVWGQGTTVTVSS VL: EIVLTQSPLSLPVTPGEPASISCRSSQSLLHSNGYNYLHWYLQKPGQSPQLLIYLGSNRASGVPDRFSGSRSGTDFTLKIIRVEAEDVGVYYCMQALQTPYTFGQGTKLEIK | other
24F10: human anti-TMEFF1 IgG1 antibody; VH SEQ ID NO: 33, VL SEQ ID NO: 36 (antibody, V domains shown) VH: QVQLVESGGGVVQPGRSLRLSCAASGFTFSSYGMHWVRQAPGKGLEWVAVIWYDGSDKYYTDSVKGRFTISRDNSKNTLYLQMNSLRAEDTAVYYCARESMVRGIVITFFDYWGQGTLVTVSS VL: EIVMTQSPATLSVSPGERATLSCRASQSVSSNLAWYQQKPGQAPRLLIYGASTRATGIPARFSGSGSGTEFTLTISSLQSEDFAVYSCQHYNNWPPTFGGGTKVEIK | FS1
36H6: human anti-TMEFF1 IgG1 antibody; VH SEQ ID NO: 43, VL SEQ ID NO: 47 (antibody, V domains shown) VH: QVQLVESGGGVVQPGRSLRLSCAASGFTFSDYGMHWVRQAPGKGLEWVAVIWYEGGNKYYTDSVKGRFTISRDNSKNTLYLQMNSLRAEDTAVYYCARILLWFGESYGMDVWGQGTTVTVSS VL: DIQMTQSPSSLSASVGDRVTITCRASQGISNYLAWYQQKPGKVPKLLIYAASTLQSGVPSRFSGSGSGTDFTLTISSLQPEDVATYYCQKYNNAPWTFGQGTKVEIK | FS1
